target: human muscarinic M2 receptor (Homo sapiens); construct: expressed in transfected cells; host or cells: BSR-M2H; test: Binding to human muscarinic M2 receptors ([3H]N-methylscopolamine); conditions: human; Example 101 table; read-out: IC50 (nM) M2
Sequence (P08172 whole entry): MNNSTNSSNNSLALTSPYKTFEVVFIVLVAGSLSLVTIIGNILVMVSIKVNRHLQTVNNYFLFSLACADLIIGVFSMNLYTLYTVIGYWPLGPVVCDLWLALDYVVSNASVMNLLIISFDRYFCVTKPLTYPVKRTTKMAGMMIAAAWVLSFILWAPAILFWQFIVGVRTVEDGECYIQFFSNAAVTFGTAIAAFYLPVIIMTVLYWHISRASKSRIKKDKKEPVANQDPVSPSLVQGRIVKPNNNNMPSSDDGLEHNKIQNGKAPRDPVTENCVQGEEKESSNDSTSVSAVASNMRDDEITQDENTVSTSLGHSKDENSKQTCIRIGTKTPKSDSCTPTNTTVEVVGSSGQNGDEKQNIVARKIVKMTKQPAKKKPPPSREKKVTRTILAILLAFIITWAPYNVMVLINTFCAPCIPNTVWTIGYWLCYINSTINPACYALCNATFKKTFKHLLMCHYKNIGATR
quantity kind: IC50

Recorded IC50 (compound CN1CCN(c2nc(C3(c4ccccc4F)CCCC3)cs2)CC1 ): < 500 nM

Recorded IC50 (compound CN1CCN(c2nc(C3(c4ccccc4F)CCCCC3)cs2)CC1 ): > 1000 nM

Recorded IC50 (compound CN1CCN(c2nc(C3(c4cccc(Cl)c4)CCOCC3)cs2)CC1 ): > 1000 nM

Recorded IC50 (compound Clc1ccc(C2(c3csc(N4CCNCC4)n3)CCOCC2)cc1 ): > 1000 nM

Recorded IC50 (compound CN1CCN(c2nc(C3(c4csc5ccc(Cl)cc45)CCOCC3)cs2)CC1 ): > 1000 nM

###

Each record here notes measured IC50.
Target: human serotonin 5-HT6 receptor (Homo sapiens)
Construct: expressed in transfected cells; host or cells: HeLa/E6-7
Sequence (P50406 whole entry): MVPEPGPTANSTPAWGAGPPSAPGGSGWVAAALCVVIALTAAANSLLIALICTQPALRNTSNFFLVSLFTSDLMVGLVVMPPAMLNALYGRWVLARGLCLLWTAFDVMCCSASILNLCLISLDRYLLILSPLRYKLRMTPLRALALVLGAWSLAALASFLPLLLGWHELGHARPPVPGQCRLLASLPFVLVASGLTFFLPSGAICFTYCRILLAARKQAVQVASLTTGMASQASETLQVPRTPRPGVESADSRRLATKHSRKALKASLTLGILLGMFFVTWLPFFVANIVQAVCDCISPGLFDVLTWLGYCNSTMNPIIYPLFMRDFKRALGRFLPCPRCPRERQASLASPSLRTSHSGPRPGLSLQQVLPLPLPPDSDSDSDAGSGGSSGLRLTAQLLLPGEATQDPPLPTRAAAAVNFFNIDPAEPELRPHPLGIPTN
Experiment: Radioligand binding assay, human 5-HT6 receptors ([3H]LSD)
Conditions: human; Example 100 table; read-out: IC50 (nM) 5-HT6
Experimental: The human 5-HT2a and 5-HT2b screens were conducted according to Bonhaus, D. W. et al. Br. J. Pharmacol. 1995, 115, 622. The human 5-HT2c screen was conducted according to Wolf, W. A. et al. J. Neurochem. 1997, 69, 1449. […] This assay measures binding of [^3H]LSD (lysergic acid diethylamide) to human serotonin 5-HT6 receptors. […] Membranes were filtered and washed 3 times and the filters were counted to determine [^3H]LSD specifically bound. […]

Here are 10 molecules together with their reported answers.
CCN(CC)CCCNc1nc(C2(c3ccc(Cl)cc3)CCCCC2)cs1 [Compound 103]	< 1000 nM
Clc1ccc(C2(c3csc(NCCN4CCOCC4)n3)CCCC2)cc1 [Compound 99]	< 1000 nM
Clc1ccc(C2(c3csc(N4CCNCC4)n3)CCCC2)cc1 [Compound 109]	< 100 nM
Fc1ccccc1C1(c2csc(N3CCNCC3)n2)CCCCC1 [Compound 127]	< 100 nM
CN1CCCC1CCNc1nc(C2(c3ccc(Cl)cc3)CCOCC2)cs1 (racemic) [Compound 125]	> 1000 nM
Clc1ccc(C2(c3csc(N4CCC(N5CCCCC5)CC4)n3)CCCCC2)cc1 [Compound 107]	> 1000 nM
CN1CCC(N(C)c2nc(C3(c4ccc(Cl)cc4)CCCCC3)cs2)C1 (stereo not drawn) [Compound 108]	< 100 nM
CCN(CC)CCCNc1nc(C2(c3ccccc3F)CCCC2)cs1 [Compound 114]	> 1000 nM
Clc1ccc(C2(c3csc(NCCCN4CCOCC4)n3)CCCC2)cc1 [Compound 100]	< 1000 nM
Clc1ccc(C2(c3csc(NCCCN4CCOCC4)n3)CCCCC2)cc1 [Compound 94]	< 1000 nM

Recorded IC50 (molecule CN1CCC(N(C)c2nc(C3(c4ccc(Cl)cc4)CCCC3)cs2)C1 (stereo not drawn) [Compound 116] ): < 10 nM

###

biological target: human dopamine D3 receptor (Homo sapiens); construct: expressed in transfected cells; host or cells: CHO; test: Radioligand binding assay, human dopamine D3 receptors ([3H]Spiperone); conditions: Example 20 table; read-out: IC50 (nM) Against Human D3 Receptors
Sequence (P35462 whole entry): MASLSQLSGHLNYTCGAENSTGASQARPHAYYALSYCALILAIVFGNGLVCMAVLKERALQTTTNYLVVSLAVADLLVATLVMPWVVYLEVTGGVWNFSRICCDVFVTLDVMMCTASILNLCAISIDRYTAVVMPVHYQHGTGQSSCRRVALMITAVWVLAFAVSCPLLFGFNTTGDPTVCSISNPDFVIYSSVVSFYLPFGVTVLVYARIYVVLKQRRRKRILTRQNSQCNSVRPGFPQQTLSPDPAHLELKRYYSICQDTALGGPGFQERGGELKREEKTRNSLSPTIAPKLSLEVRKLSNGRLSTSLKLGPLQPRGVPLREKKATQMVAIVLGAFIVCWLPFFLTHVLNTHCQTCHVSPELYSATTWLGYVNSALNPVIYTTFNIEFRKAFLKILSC
Each record here notes measured IC50.

CN1CCN(c2nc(C3(c4ccc(OC(F)(F)F)cc4)CCOCC3)cs2)CC1 [Compound 55]	< 1000 nM
CN1CCN(c2nc(Cc3csc4ccc(Cl)cc34)cs2)CC1 [Compound 33]	< 1000 nM

Recorded IC50 (compound Clc1ccc(C2(c3csc(NCCN4CCCCC4)n3)CCC2)cc1 [Compound 23] ): < 1000 nM

Recorded IC50 (compound CC(C)N1CCN(c2nc(C3(c4ccc(F)cc4)CCCCC3)cs2)CC1 [Compound 80] ): < 1000 nM

Recorded IC50 (compound COc1ccc(C2(c3csc(N4CCN(C)CC4)n3)CCOCC2)cc1 [Compound 51] ): > 1000 nM

Recorded IC50 (compound CN1CCN(c2nc(C3(c4ccc(Cl)cc4)CCCC3)cs2)CC1 [Compound 85] ): < 1000 nM

Recorded IC50 (compound Clc1cccc(C2(c3csc(C4CCNCC4)n3)CCOCC2)c1 [Compound 68] ): > 1000 nM

Recorded IC50 (compound CN1CCN(c2nc(C3(c4ccc(Cl)cc4)CCC3)cs2)CC1 [Compound 27] ): < 1000 nM

Recorded IC50 (compound Clc1cccc(C2(c3csc(C4CCCNC4)n3)CCOCC2)c1 (stereo not drawn) [Compound 38] ): > 1000 nM
